# tested-on: Recombinant human integrin αvβ8 (Homo sapiens (Human), UniProt P06756+P26012)
# Sequence (P06756 31-992): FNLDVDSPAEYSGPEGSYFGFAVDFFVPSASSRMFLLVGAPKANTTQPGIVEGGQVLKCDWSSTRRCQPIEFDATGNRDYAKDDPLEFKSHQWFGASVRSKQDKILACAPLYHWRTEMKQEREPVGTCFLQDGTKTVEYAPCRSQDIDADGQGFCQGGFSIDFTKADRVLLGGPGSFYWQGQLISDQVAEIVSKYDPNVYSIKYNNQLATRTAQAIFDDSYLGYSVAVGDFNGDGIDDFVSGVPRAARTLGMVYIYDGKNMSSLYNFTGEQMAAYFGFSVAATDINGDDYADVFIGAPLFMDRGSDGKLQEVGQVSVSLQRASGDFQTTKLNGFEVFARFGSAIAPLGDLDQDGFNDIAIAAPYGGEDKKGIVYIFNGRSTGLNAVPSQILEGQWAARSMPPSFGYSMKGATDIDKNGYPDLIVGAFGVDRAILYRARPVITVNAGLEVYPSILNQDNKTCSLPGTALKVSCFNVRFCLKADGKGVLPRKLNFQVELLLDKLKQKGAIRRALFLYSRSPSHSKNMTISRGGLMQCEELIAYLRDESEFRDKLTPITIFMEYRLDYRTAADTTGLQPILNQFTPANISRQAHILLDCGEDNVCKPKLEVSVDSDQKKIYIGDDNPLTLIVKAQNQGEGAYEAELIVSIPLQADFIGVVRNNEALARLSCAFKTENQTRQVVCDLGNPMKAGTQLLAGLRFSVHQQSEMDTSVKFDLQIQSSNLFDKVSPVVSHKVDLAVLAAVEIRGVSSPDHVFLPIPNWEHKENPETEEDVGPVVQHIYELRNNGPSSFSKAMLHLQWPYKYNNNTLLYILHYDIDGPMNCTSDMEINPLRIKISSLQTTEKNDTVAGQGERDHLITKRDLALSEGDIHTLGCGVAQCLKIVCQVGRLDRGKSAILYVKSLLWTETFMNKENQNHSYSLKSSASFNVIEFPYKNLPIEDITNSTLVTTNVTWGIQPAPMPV
# Sequence (P26012 43-684): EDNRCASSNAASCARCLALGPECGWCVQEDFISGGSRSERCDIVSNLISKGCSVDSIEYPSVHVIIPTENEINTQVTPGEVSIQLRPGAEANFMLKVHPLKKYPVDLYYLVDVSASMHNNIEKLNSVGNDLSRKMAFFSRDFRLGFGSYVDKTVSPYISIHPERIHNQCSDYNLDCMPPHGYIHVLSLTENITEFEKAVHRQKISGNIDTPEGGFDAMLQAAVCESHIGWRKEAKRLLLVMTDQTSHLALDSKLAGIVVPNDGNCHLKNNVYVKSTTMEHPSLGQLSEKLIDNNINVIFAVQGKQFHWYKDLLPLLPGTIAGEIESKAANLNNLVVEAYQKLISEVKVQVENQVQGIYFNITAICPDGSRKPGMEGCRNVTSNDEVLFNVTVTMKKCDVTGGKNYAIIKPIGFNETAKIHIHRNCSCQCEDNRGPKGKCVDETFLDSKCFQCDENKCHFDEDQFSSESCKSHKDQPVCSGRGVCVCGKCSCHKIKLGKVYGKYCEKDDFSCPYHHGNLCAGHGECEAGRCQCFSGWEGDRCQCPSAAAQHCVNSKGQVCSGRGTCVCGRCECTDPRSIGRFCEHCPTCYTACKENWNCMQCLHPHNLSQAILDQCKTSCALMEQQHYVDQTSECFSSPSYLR
# method-notes: Solid Phase Receptor Assay (SPRA) for αvβ8 function
# measurement-conditions: LAP-coated plate
Overview of recorded IC50 for various compounds
Enter your answer as a number in nM; do not include the unit.

# example entries with known answers
Ask: Could you share what IC50 was measured for O=C(O)C[C@H](NC(=O)CNC(=O)c1cc(O)cc(NC2=NCC(O)CN2)c1)c1cc(Cl)cc(C(F)F)c1 (stereo partly drawn) [Example 3] , tested on Recombinant human integrin αvβ8 (Homo sapiens (Human), UniProt P06756+P26012)?
Reply: 0.3

Ask: Could you share what IC50 was measured for O=C(O)C[C@H](NC(=O)CNC(=O)c1cncc(NC2=NCC(O)CN2)c1)c1cc(Br)cc(C(F)(F)F)c1 (stereo partly drawn) [Example 9] , tested on Recombinant human integrin αvβ8 (Homo sapiens (Human), UniProt P06756+P26012)?
Reply: 0.3

Others:
Ask: Could you share what IC50 was measured for O=C(O)C[C@H](NC(=O)CNC(=O)c1cc(O)cc(NC2=NCC(O)CN2)c1)c1cc(Cl)cc(OC(F)(F)F)c1 (stereo partly drawn) [Example 16] , tested on Recombinant human integrin αvβ8 (Homo sapiens (Human), UniProt P06756+P26012)?
Reply: 0.3

Ask: Could you share what IC50 was measured for O=C(O)C[C@H](NC(=O)CNC(=O)c1cc(O)cc(NC2=NCC(O)CN2)c1)c1cc(F)cc(Br)c1 (stereo partly drawn) [Example 13] , tested on Recombinant human integrin αvβ8 (Homo sapiens (Human), UniProt P06756+P26012)?
Reply: 1

Ask: Could you share what IC50 was measured for Cc1cc(Br)cc([C@H](CC(=O)O)NC(=O)CNC(=O)c2cc(O)cc(NC3=NCC(O)CN3)c2)c1 (stereo partly drawn) [Example 11] , tested on Recombinant human integrin αvβ8 (Homo sapiens (Human), UniProt P06756+P26012)?
Reply: 0.6

Ask: Could you share what IC50 was measured for O=C(O)C[C@H](NC(=O)CNC(=O)c1cc(O)cc(NC2=NCC(O)CN2)c1)c1cc(Cl)cc(Br)c1O (stereo partly drawn) [Example C1, reference compound] , tested on Recombinant human integrin αvβ8 (Homo sapiens (Human), UniProt P06756+P26012)?
Reply: 3

Ask: Could you share what IC50 was measured for O=C(O)C[C@H](NC(=O)CNC(=O)c1cc(O)cc(NC2=NCC(O)CN2)c1)c1cc(Cl)cc(Cl)c1 (stereo partly drawn) [Example 15] , tested on Recombinant human integrin αvβ8 (Homo sapiens (Human), UniProt P06756+P26012)?
Reply: 1.1

Ask: Could you share what IC50 was measured for O=C(O)C[C@H](NC(=O)CNC(=O)c1cc(O)cc(NC2=NCC(O)CN2)c1)c1cc(Cl)cc(Br)c1 (stereo partly drawn) [Example 6] , tested on Recombinant human integrin αvβ8 (Homo sapiens (Human), UniProt P06756+P26012)?
Reply: 0.5

Ask: Could you share what IC50 was measured for O=C(O)C[C@H](NC(=O)CNC(=O)c1cc(O)cc(NC2=NCC(O)CN2)c1)c1cc(Br)cc(C(F)F)c1 (stereo partly drawn) [Example 4] , tested on Recombinant human integrin αvβ8 (Homo sapiens (Human), UniProt P06756+P26012)?
Reply: 0.4

Ask: Could you share what IC50 was measured for O=C(O)C[C@H](NC(=O)CNC(=O)c1cc(O)cc(NC2=NCC(O)CN2)c1)c1cc(Br)cc(Br)c1 (stereo partly drawn) [Example 1] , tested on Recombinant human integrin αvβ8 (Homo sapiens (Human), UniProt P06756+P26012)?
Reply: 0.3

Ask: Could you share what IC50 was measured for O=C(O)C[C@H](NC(=O)CNC(=O)c1cc(O)cc(NC2=NCC(O)CN2)c1)c1cc(Br)cc(C(F)(F)F)c1 (stereo partly drawn) [Example 2] , tested on Recombinant human integrin αvβ8 (Homo sapiens (Human), UniProt P06756+P26012)?
Reply: 0.5

Ask: Could you share what IC50 was measured for O=C(O)C[C@H](NC(=O)CNC(=O)c1cncc(NC2=NCC(O)CN2)c1)c1cc(Cl)cc(C(F)(F)F)c1 (stereo partly drawn) [Example 7] , tested on Recombinant human integrin αvβ8 (Homo sapiens (Human), UniProt P06756+P26012)?
Reply: 0.4

The origin of these recorded values is patent US10035778B2.
